Test: in vitro
Details: human
Endpoint name: CC50 (µM)
Kindly answer with a numeric value in µM, unit omitted.

Identify the reported CC50 for the following entry. COc1c(C2CC2c2ccc(NS(C)(=O)=O)cc2)cc(-c2ccc[nH]c2=O)cc1C(C)(C)C (stereo not shown)
15

---

Entries and their IC50 values follow.
Target: HCV polymerase (NS5B570n-Con1) (Hepatitis C virus genotype 1b)
Construct: contains a 21 amino acid deletion at the C-terminus relative to the full-length HCV polymerase; 6-histidine (N); made in house; host or cells: E. coli BL21(DE) pLysS, plasmid pET17b
Test: HCV NS5B RNA polymerase activity assay
Format: biochemical, HCV Con1 strain
Kindly answer with a numeric value in µM, unit omitted.

CC(C)(C)c1cc(-c2ccc[nH]c2=O)cc(C2CC2c2ccc(NS(C)(=O)=O)cc2)c1 (centres unmarked) = 0.021

Please find the next compound below.
Identify the reported IC50 for the following entry. CC(C)(C)c1cc(-c2ccc[nH]c2=O)c(O)c(C2CC2c2ccc(NS(C)(=O)=O)cc2)c1 (centres unmarked)
0.012
